target under test: human CB1 receptor (Homo sapiens, UniProt P21554)
Construct: expressed in transfected cells; host or cells: HEK293
Sequence (P21554 whole entry): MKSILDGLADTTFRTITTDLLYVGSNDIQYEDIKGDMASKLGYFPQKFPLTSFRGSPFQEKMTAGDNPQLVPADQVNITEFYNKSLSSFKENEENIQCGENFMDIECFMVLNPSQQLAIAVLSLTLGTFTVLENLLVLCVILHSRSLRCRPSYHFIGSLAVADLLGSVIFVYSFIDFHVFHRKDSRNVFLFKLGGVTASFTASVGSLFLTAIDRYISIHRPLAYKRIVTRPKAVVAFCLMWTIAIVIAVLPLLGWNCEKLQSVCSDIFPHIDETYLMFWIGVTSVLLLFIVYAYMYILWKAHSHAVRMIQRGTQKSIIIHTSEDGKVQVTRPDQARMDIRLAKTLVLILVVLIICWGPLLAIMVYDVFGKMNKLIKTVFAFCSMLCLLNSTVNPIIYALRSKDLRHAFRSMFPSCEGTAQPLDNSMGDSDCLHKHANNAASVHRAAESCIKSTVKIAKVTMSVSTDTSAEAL
assay details: bioSensAll GAPL-Gi2 BRET biosensor assay in HEK293 cells transfected with hCB1; test compound added before EC75-80 of agonist CP55,940 (0.1 nM)
Type: cell-based
run parameters: vs CP55,940 0.1 nM (EC75-80), read-out: CB1 wt Gi2 IC50
A collection of compounds and their measured log10 of IC50
All values: log10 IC50 [nM].

Here is how some compounds turned out for log10 of IC50.
# compound, log10 of IC50
records = [
    ("CC(C)(O)COc1nc(N2CCNCC2)c2nc(-c3ccccc3Cl)n(-c3ccc(Cl)cc3)c2n1", 1.78),
    ("CC(CO)Oc1nc(N2CCC(C)(C(N)=O)CC2)c2nc(-c3ccccc3Cl)n(-c3ccc(Cl)cc3)c2n1 (single isomer, unassigned)", -0.38),
]

Problem: Param readout= log10 of IC50; system= human CB1 receptor (Homo sapiens, UniProt P21554); entry= `CN(CC1(O)CC1)c1nc(N2CCC(C)(C(N)=O)CC2)c2nc(-c3ccccc3Cl)n(-c3ccc(Cl)cc3)c2n1` ; returns value.
Solution: 0.22

Problem: Please state recorded log10 of IC50 (tested on human CB1 receptor (Homo sapiens, UniProt P21554)) of `CN(CCO)c1nc(N2CC(C(N)=O)C2)c2nc(-c3ccccc3Cl)n(-c3ccc(Cl)cc3)c2n1`
Solution: 0.04

Problem: Which measured log10 of IC50 belongs to `OC[C@@H]1CCCN1c1nc(-c2ccc(C(F)(F)F)nc2)c2nc(-c3ccccc3Cl)n(-c3ccc(Cl)cc3)c2n1` , tested on human CB1 receptor (Homo sapiens, UniProt P21554)?
Solution: -0.31

Problem: Record `NC(=O)C1CCN(c2nc(N3CCC[C@H]3CO)nc3c2nc(-c2ccccc2Cl)n3-c2ccc(Cl)cc2)CC1` : what is its log10 of IC50 with human CB1 receptor (Homo sapiens, UniProt P21554)?
Solution: -0.09

Problem: API: value(readout=log10 of IC50, system=human CB1 receptor (Homo sapiens, UniProt P21554)) for record `Cc1cnn(-c2nc(N3CCC(C)(C(N)=O)CC3)c3nc(-c4ccccc4Cl)n(-c4ccc(Cl)cc4)c3n2)c1`
Solution: 0.14

* * *

target under test: human CB1 receptor (Homo sapiens, UniProt P21554)
Construct: expressed in transfected cells; host or cells: HEK293
assay details: bioSensAll β-arrestin2 plasma membrane translocation (+GRK2) BRET biosensor assay in HEK293 cells transfected with hCB1; test compound added before EC75-80 of agonist CP55,940 (100 nM)
Assay type: cell-based
run parameters: βArrestin2 (+GRK2) BRET biosensor, vs CP55,940 100 nM (EC75-80), read-out: CB1 wt βarr2 IC50
assay endpoint: log10(IC50) (log10 of the value in nM)
Please be aware that the numbers have been log10-transformed from IC50 in nM.

# structure, target under test, assay endpoint, quantitative readout
data = [
    ("CCNC1(C(N)=O)CCN(c2nc(N3CCCCC3)nc3c2nc(-c2ccccc2Cl)n3-c2ccc(Cl)cc2)CC1", "human CB1 receptor (Homo sapiens, UniProt P21554)", "log10(IC50)", 0.91),
]

Please look at the following compound next.
Problem: Quick check: log10(IC50) of `CN(CCO)c1nc(N2CC(C)(O)C2)c2nc(-c3ccccc3Cl)n(-c3ccc(Cl)cc3)c2n1` ?
Solution: 0.48

Data credit: patent US20250333418A1
